# TEST DESCRIPTION: recombinant barcode read abundance after kanamycin selection (control-corrected) (log10(CPM+1)); higher = more efficient recombination; sequences stand for … in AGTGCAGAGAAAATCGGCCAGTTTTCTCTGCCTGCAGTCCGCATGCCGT…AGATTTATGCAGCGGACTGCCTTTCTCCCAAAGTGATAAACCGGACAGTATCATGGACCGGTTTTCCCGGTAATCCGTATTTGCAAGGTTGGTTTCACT; site = the 11-nt target;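 note: IS621 recombinase and bridge RNA in Escherichia coli cells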
Would you mind telling me the reported recombinant barcode read abundance (log10) of each entry?
Lab note: jot down the number only; don't add units.

Lookup result for CATCGAGCTTGGGTTCTAACCTGTTGCCG (site CAGCGAGCTCG) ; measured recombinant barcode read abundance (log10): 0.236

Lookup result for AGCTGGGCTTGGGTTCTAACCTGTTGCGG (site AGCTGGGCTCC) ; measured recombinant barcode read abundance (log10): 1.6

Lookup result for TACCGGACTTGGGTTCTAACCTGTTGCGT (site TACCGGACTAC) ; measured recombinant barcode read abundance (log10): 2.13

Lookup result for ATCTGTTCTTGGGTTCTAACCTGTTGCCT (site ACCTGTGCTAG) ; measured recombinant barcode read abundance (log10): 0.108

Lookup result for AATAAGTCTTGGGTTCTAACCTGTTGCCT (site ACTAAGTCTAG) ; measured recombinant barcode read abundance (log10): 0.0757

Lookup result for AGTCTAGCTTGGGTTCTAACCTGTTGCCT (site AGTCTAGCTAG) ; measured recombinant barcode read abundance (log10): 0.0325

Lookup result for ACCTACTCTTGGGTTCTAACCTGTTGCTT (site ACCTACTCTAA) ; measured recombinant barcode read abundance (log10): 1.33

Lookup result for TCCAACCCTTGGGTTCTAACCTGTTGCGG (site TCCAACCCTCC) ; measured recombinant barcode read abundance (log10): 1.78

Lookup result for CCACCTTCTTGGGTTCTAACCTGTTGCCT (site CCACCTTCTAG) ; measured recombinant barcode read abundance (log10): 0.0666

Lookup result for GTTAGCCCTTGGGTTCTAACCTGTTGCGG (site GTTAGCCCTCC) ; measured recombinant barcode read abundance (log10): 1.79

Lookup result for TACCCATCTTGGGTTCTAACCTGTTGCCT (site TAACCATCTAG) ; measured recombinant barcode read abundance (log10): 0.0921

Lookup result for GATCCGTCTTGGGTTCTAACCTGTTGCGG (site GATCCGTCTCC) ; measured recombinant barcode read abundance (log10): 0.136

Lookup result for ACTTGAGCTTGGGTTCTAACCTGTTGCAG (site ACTTGAGCTCT) ; measured recombinant barcode read abundance (log10): 1.48

----------
# TEST DESCRIPTION: recombinant barcode read abundance after kanamycin selection (control-corrected) (log10(CPM+1)); higher = more efficient recombination; sequences stand for … in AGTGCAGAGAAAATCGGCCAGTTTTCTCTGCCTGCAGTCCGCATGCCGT…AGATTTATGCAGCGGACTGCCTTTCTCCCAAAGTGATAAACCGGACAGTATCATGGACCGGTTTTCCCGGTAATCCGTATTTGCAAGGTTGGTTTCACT; site = the 11-nt target
TEST READOUT: recombinant barcode read abundance (log10)
Lab note: jot down the number only; don't add units.

Lookup result for AATTGGACTTGGGTTCTAACCTGTTGCTT (site GATTGGACTAA) ; measured recombinant barcode read abundance (log10): 0.0807

Lookup result for TCCCACTCTTGGGTTCTAACCTGTTGCCT (site TCCCACTCTAG) ; measured recombinant barcode read abundance (log10): 1.56

Lookup result for ACACGACCTTGGGTTCTAACCTGTTGCGG (site ACACGACCTCC) ; measured recombinant barcode read abundance (log10): 2.48

Lookup result for TGCGACCCTTGGGTTCTAACCTGTTGCTT (site TGCGACCCTAA) ; measured recombinant barcode read abundance (log10): 1.74

Lookup result for TGGGGTCCTTGGGTTCTAACCTGTTGCCT (site TGGGGTCCTAG) ; measured recombinant barcode read abundance (log10): 2.33

Lookup result for ATTCCATCTTGGGTTCTAACCTGTTGCCT (site ATCCCATCTAG) ; measured recombinant barcode read abundance (log10): 0.281

Lookup result for CATCCGCCTTGGGTTCTAACCTGTTGCCT (site CATCCGGCTAG) ; measured recombinant barcode read abundance (log10): 0.0751

Lookup result for AAGCGTTCTTGGGTTCTAACCTGTTGCCT (site AAGCGTGCTAG) ; measured recombinant barcode read abundance (log10): 0.0909

Lookup result for ACCCGTACTTGGGTTCTAACCTGTTGCCT (site ACCAGTACTAG) ; measured recombinant barcode read abundance (log10): 0.063

Lookup result for TAGCTCACTTGGGTTCTAACCTGTTGCGG (site TAGCGCACTCC) ; measured recombinant barcode read abundance (log10): 0.791

Lookup result for ACATTGCCTTGGGTTCTAACCTGTTGCCT (site ACGTTGCCTAG) ; measured recombinant barcode read abundance (log10): 0.732

Lookup result for TCCACAGCTTGGGTTCTAACCTGTTGCCT (site TCCACAGCTAG) ; measured recombinant barcode read abundance (log10): 0.784

Lookup result for ACGGCATCTTGGGTTCTAACCTGTTGCCT (site ACGGCATCTAG) ; measured recombinant barcode read abundance (log10): 0.0883

Lookup result for AGCGTTGCTTGGGTTCTAACCTGTTGCCT (site AGCCTTGCTAG) ; measured recombinant barcode read abundance (log10): 0.142

Lookup result for TCGCACTCTTGGGTTCTAACCTGTTGCCT (site TCACACTCTAG) ; measured recombinant barcode read abundance (log10): 1.22

Lookup result for TGTCAATCTTGGGTTCTAACCTGTTGCCT (site TGTCAAGCTAG) ; measured recombinant barcode read abundance (log10): 0.0211

Lookup result for TGTTCAGCTTGGGTTCTAACCTGTTGCCT (site TGTTCAGCTAG) ; measured recombinant barcode read abundance (log10): 0.066

Lookup result for CTAAGAACTTGGGTTCTAACCTGTTGCTT (site CTAAGAACTAT) ; measured recombinant barcode read abundance (log10): 0.086

Lookup result for AGCTTAGCTTGGGTTCTAACCTGTTGCCT (site AGCTTAGCTTG) ; measured recombinant barcode read abundance (log10): 0.158

Lookup result for AATGGGACTTGGGTTCTAACCTGTTGCTG (site AATGGGACTTC) ; measured recombinant barcode read abundance (log10): 1.55

Lookup result for GACGGATCTTGGGTTCTAACCTGTTGCTT (site GACGGATCTAA) ; measured recombinant barcode read abundance (log10): 0.557

Lookup result for AGGTCCTCTTGGGTTCTAACCTGTTGCGT (site AGGTCCTCTAT) ; measured recombinant barcode read abundance (log10): 1.71

Lookup result for CAAACTCCTTGGGTTCTAACCTGTTGCCT (site CAAACTCCTAG) ; measured recombinant barcode read abundance (log10): 0.238

Lookup result for CAGTAATCTTGGGTTCTAACCTGTTGCCT (site CAGTAATCTAG) ; measured recombinant barcode read abundance (log10): 0.683

Lookup result for TCCGAGCCTTGGGTTCTAACCTGTTGCAT (site TCCGAGCCTAT) ; measured recombinant barcode read abundance (log10): 1.98

These data points were gathered from the supplement of paper PMC11208160.
